ASSAY EXPLANATION: Cytotoxicity against human THP1 cells after 48 hrs by MTT assay
Format: cell-based, THP-1
TEST CONDITIONS: THP-1 cells
ATTRIBUTE MEASURED: GI50 at 48 h (µg/mL)
Your answer should be a plain number; it is taken to be in µg/mL.

Example molecules with recorded GI50 at 48 h:
MOLECULE	UNITS LABEL	GI50 at 48 h
COC(=O)CC[C@@H](C)[C@H]1CC[C@H]2[C@H]3[C@H]([C@H](NC(=O)C(CO)NC(=O)OC(C)(C)C)C(=O)[C@]12C)[C@@]1(C)CC[C@@H](OC(C)=O)C[C@H]1C[C@H]3OC(C)=O (stereo not given in full)	µg/mL	76.2
COC(=O)CC[C@@H](C)[C@H]1CC[C@H]2[C@H]3[C@H]([C@H](n4nnc5ccccc54)C(=O)[C@]12C)[C@@]1(C)CC[C@@H](OC(C)=O)C[C@H]1C[C@H]3OC(C)=O	µg/mL	29.9
COC(=O)CC[C@@H](C)[C@H]1CC[C@H]2[C@H]3[C@H]([C@H](NC(=O)[C@H]4CCCN4C(=O)OC(C)(C)C)C(=O)[C@]12C)[C@@]1(C)CC[C@@H](OC(C)=O)C[C@H]1C[C@H]3OC(C)=O	µg/mL	46

Reported GI50 at 48 h for CC(=O)O[C@H]1C(=O)[C@@]2(C)[C@H]([C@H](OC(=O)c3ccccc3)[C@]3(O)C[C@H](OC(=O)[C@H](O)[C@@H](NC(=O)c4ccccc4)c4ccccc4)C(C)=C1C3(C)C)[C@]1(OC(C)=O)CO[C@@H]1C[C@@H]2O was 0.137
